Would you mind telling me the reported Cell viability (%) Average of each entry?
- Test system: HEK293 cells
- Experiment Description: Cell viability assay (MTT method)
- Assay type: cell-based
- Protocol Conditions: compound 20 μM, percentage of viable LPS-stimulated cells
One number for each entry, in %.

Before answering, review these 10 worked examples.
COc1ccc2c(c1)[C@]13CCCC[C@@H]1[C@H](C2)N(c1ccc(N)cc1)CC3 : 83.1
COc1ccc2c(c1)[C@]13CCCC[C@@H]1[C@H](C2)N(c1ccc([N+](=O)[O-])c(N)c1)CC3 : 110.9
CCOC(=O)Nc1ccc(N2CC[C@@]34CCCC[C@@H]3[C@@H]2Cc2ccc(OC)cc24)cc1 : 79.3
Nc1ccc(N2CC[C@@]34CCCC[C@@H]3[C@@H]2Cc2ccc(O)cc24)cc1N : 143.0
COc1ccc2c(c1)[C@]13CCCC[C@@H]1[C@H](C2)N(CC(O)CN1CCOCC1)CC3 (stereo partly drawn) : 101.5
Nc1ccc(N2CC[C@@]34CCCC[C@@H]3[C@@H]2Cc2ccc(O)cc24)nc1 : 100.8
CC(=O)Nc1ccc(S(=O)(=O)N2CC[C@@]34CCCC[C@@H]3[C@@H]2Cc2ccc(O)cc24)cc1 : 104.0
CC(C)Nc1ccc(N2CC[C@@]34CCCC[C@@H]3[C@@H]2Cc2ccc(O)cc24)cc1 : 89.9
COc1ccc2c(c1)[C@]13CCCC[C@@H]1[C@H](C2)N(S(=O)(=O)c1ccc(N)cc1)CC3 : 111.6
Cc1cc(N2CC[C@@]34CCCC[C@@H]3[C@@H]2Cc2ccc(O)cc24)ccc1N : 101.7

Lab note: each compound below needs its Cell viability (%) Average filled in.
1. Nc1ccc(N2CC[C@@]34CCCC[C@@H]3[C@@H]2Cc2ccc(O)cc24)c(F)c1
2. COc1ccc2c(c1)[C@]13CCCC[C@@H]1[C@H](C2)N(CC(O)CSc1ccccc1)CC3 (stereo partly drawn)
3. COc1ccc2c(c1)[C@]13CCCC[C@@H]1[C@H](C2)N(S(=O)(=O)c1ccc([N+](=O)[O-])cc1)CC3
4. Nc1ccc(N2CC[C@@]34CCCC[C@@H]3[C@@H]2Cc2ccc(O)cc24)c(C(F)(F)F)c1
5. CC(C)N(c1ccc(N2CC[C@@]34CCCC[C@@H]3[C@@H]2Cc2ccc(O)cc24)cc1)C(C)C

1. 97.4
2. 81.3
3. 104.1
4. 96.2
5. 99.2
